TESTED ON: MDR1 P-glycoprotein (ABCB1) (Homo sapiens)
Sequence (P08183 whole entry): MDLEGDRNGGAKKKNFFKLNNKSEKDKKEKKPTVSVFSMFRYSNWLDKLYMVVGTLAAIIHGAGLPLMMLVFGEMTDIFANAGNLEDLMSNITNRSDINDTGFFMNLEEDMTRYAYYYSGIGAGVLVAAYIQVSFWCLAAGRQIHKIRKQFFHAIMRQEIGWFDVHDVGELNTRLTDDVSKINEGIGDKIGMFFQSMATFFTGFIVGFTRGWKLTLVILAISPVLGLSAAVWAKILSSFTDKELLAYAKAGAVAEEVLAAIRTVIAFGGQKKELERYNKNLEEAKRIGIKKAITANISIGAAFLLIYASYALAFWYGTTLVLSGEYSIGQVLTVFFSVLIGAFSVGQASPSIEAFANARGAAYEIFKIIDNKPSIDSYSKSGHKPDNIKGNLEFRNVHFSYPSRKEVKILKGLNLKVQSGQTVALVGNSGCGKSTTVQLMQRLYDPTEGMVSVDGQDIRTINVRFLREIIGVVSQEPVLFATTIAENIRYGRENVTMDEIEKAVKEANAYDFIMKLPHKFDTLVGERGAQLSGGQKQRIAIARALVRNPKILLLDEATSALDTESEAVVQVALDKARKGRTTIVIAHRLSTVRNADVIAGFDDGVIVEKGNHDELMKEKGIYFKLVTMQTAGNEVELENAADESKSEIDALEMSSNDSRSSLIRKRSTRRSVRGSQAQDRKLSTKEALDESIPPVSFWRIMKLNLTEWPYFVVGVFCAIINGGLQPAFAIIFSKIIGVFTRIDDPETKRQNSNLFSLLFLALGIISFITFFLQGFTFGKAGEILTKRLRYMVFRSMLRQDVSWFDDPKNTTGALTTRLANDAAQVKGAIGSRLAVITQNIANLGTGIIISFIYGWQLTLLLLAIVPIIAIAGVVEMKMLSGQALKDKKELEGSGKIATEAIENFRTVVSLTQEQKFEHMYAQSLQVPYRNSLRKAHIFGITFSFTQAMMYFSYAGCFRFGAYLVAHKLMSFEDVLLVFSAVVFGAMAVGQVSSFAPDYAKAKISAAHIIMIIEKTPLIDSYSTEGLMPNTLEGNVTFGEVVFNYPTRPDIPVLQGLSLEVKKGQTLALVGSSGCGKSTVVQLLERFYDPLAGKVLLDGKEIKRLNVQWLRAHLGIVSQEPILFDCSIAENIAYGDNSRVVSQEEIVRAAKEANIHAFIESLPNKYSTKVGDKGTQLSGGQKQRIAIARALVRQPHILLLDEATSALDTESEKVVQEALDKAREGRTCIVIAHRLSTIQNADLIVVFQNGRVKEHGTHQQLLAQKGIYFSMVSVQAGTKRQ
ASSAY REMARKS: Inhibitory activity against Human MDR1 P-Glycoprotein ABC Transporter using leukemia CEM cells
CONDITION CONTEXT: human, leukemia CEM cells
Where a SMILES comes first, the peptide text is derived from it. [ ]: non-standard residue; d: D form. NMeBmt(8-OH) = CN[C@H](C(=O)O)[C@H](O)[C@H](C)C/C=C/CO; MeBmt = C/C=C/C[C@@H](C)[C@@H](O)[C@H](NC)C(=O)O; Val(2S-OH) = CC(C)[C@](N)(O)C(=O)O; NMeL = CN[C@@H](CC(C)C)C(=O)O; NMeV = CN[C@H](C(=O)O)C(C)C; Sar = CNCC(=O)O
PROPERTY LABEL: IC50 (µM)
Just the number please, in µM, no unit attached.

INSERT INTO assay_data (molecule, property_label, measurement) VALUES
  ('CC(C)C[C@@H]1NC(=O)[C@H](CC(C)C)N(C)C(=O)[C@@](O)(C(C)C)NC(=O)[C@H](C)NC(=O)[C@H](CC(C)C)N(C)C(=O)[C@H](CC(C)C)NC(=O)[C@H](CC(C)C)N(C)C(=O)CN(C)C(=O)[C@H]([C@@H](C)O)NC(=O)[C@H]([C@H](O)[C@H](C)C/C=C/CO)N(C)C(=O)[C@H](C(C)C)N(C)C1=O (cyclo(A[Val(2S-OH)][NMeL]L[NMeV][NMeBmt(8-OH)]T[Sar][NMeL]L[NMeL]))', 'IC50', 15.8),
  ('C/C=C/C[C@@H](C)[C@@H](O)C1NC(=O)[C@H](C(C)C)N(C)C(=O)[C@H](CC(C)C)N(C)C(=O)[C@H](CC(C)C)N(C)C(=O)[C@@H](C)NC(=O)[C@H](C)NC(=O)[C@@H](CC(C)C)N(C)C(=O)[C@@H](C(C)C)NC(=O)[C@@H](CC(C)C)N(C)C(=O)CN(C)C(=O)[C@H]([C@@H](C)O)NC1=O (stereo not given in full)', 'IC50', 17),
  ('CC[C@@H]1NC(=O)[C@H](C2CCCCC2C)N(C)C(=O)[C@H](C(C)C)N(C)C(=O)[C@H](CC(C)C)N(C)C(=O)[C@H](CC(C)C)N(C)C(=O)[C@@H](C)NC(=O)[C@H](C)NC(=O)[C@H](CC(C)C)N(C)C(=O)[C@H](C(C)C)NC(=O)[C@H](CC(C)C)N(C)C(=O)CN(C)C1=O (stereo not given in full)', 'IC50', 13.1);

## Input Field: IC50 (MDR1 P-glycoprotein (ABCB1) (Homo sapiens)). Entry: C/C=C/C[C@@H](C)[C@@H](O)[C@H]1C(=O)N[C@@H]([C@@H](C)O)C(=O)N(C)CC(=O)N(C)[C@@H](CC(C)C)C(=O)N[C@@H]([C@@H](C)CC)C(=O)N(C)[C@@H](CC(C)C)C(=O)N[C@@H](C)C(=O)N[C@](O)(C(C)C)C(=O)N(C)[C@@H](CC(C)C)C(=O)N[C@@H](CC(C)C)C(=O)N(C)[C@@H](C(C)C)C(=O)N1C (cyclo(A[Val(2S-OH)][NMeL]L[NMeV][MeBmt]T[Sar][NMeL]I[NMeL]))
## Output 1.6

## Input # query: IC50 | item CC/C=C/C[C@@H](C)[C@@H](O)[C@H]1C(=O)N[C@@H](CC)C(=O)N(C)[C@@H](Cc2ccccc2)C(=O)N(C)[C@H](CC(C)C)C(=O)N[C@H](C(C)C)C(=O)N(C)[C@H](CC(C)C)C(=O)N[C@@H](C)C(=O)N[C@H](C)C(=O)N(C)[C@@H](CC(C)C)C(=O)N(C)[C@@H](CC(C)C)C(=O)N(C)[C@@H](C(C)C)C(=O)N1C | system: MDR1 P-glycoprotein (ABCB1) (Homo sapiens)
## Output 1.5
